Data credit: the supplement of paper PMC8728848

# tgt: GlcNAc(b1-2)Man(a1-3)[GlcNAc(b1-2)Man(a1-6)]Man(b1-4)GlcNAc(b1-4)GlcNAc
# protocol-text: glycan array binding signal (z-score within array); higher = stronger binding
# condition-parameters: glycan notation: IUPAC condensed, linker removed
The entries come from a sample that favours the strongest signals as a whole.
glycan array binding signal (z-score) values by entry
readout-name: glycan array binding signal (z-score)

binder: EEA (Euonymus europaeus) (protein) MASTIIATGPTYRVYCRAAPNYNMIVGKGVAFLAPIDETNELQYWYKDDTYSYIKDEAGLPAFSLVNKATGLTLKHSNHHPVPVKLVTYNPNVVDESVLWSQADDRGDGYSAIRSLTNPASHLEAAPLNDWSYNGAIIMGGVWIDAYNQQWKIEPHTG
recorded-number: -0.152
//
binder: Mermaid1 (Stilbonema majum) (protein) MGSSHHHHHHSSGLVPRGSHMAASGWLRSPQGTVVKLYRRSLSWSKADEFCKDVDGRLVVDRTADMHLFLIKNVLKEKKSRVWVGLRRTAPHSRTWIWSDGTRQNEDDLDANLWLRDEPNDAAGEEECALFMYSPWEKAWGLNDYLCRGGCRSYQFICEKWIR
recorded-number: -0.645
//
binder: TAL6-4LysM (Trichoderma atroviride) (protein) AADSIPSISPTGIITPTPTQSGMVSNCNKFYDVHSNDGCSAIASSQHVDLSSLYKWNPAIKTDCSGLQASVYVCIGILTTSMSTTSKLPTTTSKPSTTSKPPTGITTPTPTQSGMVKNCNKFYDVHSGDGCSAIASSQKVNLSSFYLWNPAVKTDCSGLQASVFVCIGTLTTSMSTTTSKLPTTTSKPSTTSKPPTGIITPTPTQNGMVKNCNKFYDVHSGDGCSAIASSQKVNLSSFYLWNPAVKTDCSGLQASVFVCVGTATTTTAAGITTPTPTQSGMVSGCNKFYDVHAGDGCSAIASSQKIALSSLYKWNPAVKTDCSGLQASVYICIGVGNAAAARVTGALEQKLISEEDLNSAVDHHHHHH
recorded-number: 2.79
